System: MCF7 breast
Test: NCI-60 one-dose screen, 48 h
Conditions: 10 µM unless noted
About 83,000 compounds went through this panel and 20% of them were active in at least one assay; those are over-represented in the sample as a whole. Activity calls are given as the source filed them. Rule for the calls: active = growth percent below 10; inactive = the rest.
In this exercise, the only acceptable responses are active, inactive

N=C(N)c1ccc(-c2ccc(-c3cc(Cl)cc(Cl)c3)s2)nc1
active
CC1(C)[C@@H](O[C@@H]2OC[C@@H](O[C@@H]3O[C@H](CO)[C@@H](O)[C@H](O)[C@H]3O[C@@H]3OC[C@@H](O)[C@H](O)[C@H]3O)[C@H](O)[C@H]2O[C@@H]2O[C@H](CO)[C@@H](O)[C@H](O)[C@H]2O)CC[C@]2(C)[C@H]3CC[C@]45OC[C@@]6(CC[C@](C)(C=O)C[C@H]64)[C@H](O)C[C@@]5(C)[C@]3(C)CC[C@@H]12
active

*Q* Each compound tested received a call. Report the one for COc1ccc(Cn2cc3c(c2-c2ccccc2)CCc2cnoc2-3)cc1 .
*A* inactive

----------
Tested on: SK-MEL-28 melanoma
Assay: NCI-60 one-dose screen, 48 h
Settings: 10 µM unless noted
The panel holds about 83,000 compounds, 20% with a hit somewhere; the sample as a whole holds those more often. Calls of active or inactive are those of the source. Rule for the calls: active = growth percent below 10; inactive = the rest.
In this exercise, the only acceptable responses are t (active), f (inactive)

Fc1ccc2[nH]cc(-c3nc(-c4c[nH]c5ccncc45)cs3)c2c1
t
COc1ccc2c(c1)/C(=N/c1n[nH]c(=S)s1)C(=O)N2
f
COc1ccc2cc(-c3ccnc4c(N=Nc5ccc(Cl)cc5)c(N)nn34)ccc2c1
f

*Q* Each compound tested received a call. Report the one for CNC(C)[C@H]1CCC2C3CC=C4C(=O)[C@@H](NC(=O)C=C(C)C)CC[C@]4(C)C3CC[C@@]21C (stereo partly specified) .
*A* t

*Q* Each compound tested received a call. Report the one for N#Cc1ccc(O)c(C2=NCC(Cc3ccccc3)O2)c1 (stereo unspecified) .
*A* f

*Q* Each compound tested received a call. Report the one for COc1ccc(C(=O)/C=C/c2ccc(N3CCCCC3)cc2)cc1OC .
*A* f

*Q* Each compound tested received a call. Report the one for Cc1nc2ccccc2c(/C=C/c2ccccc2)c1C(=O)/C=C/c1ccccc1 .
*A* f

*Q* Each compound tested received a call. Report the one for COc1ccc(-c2nc(/C=C3\C(=O)N(C)c4ccccc43)c3ccccn23)cc1 .
*A* f

*Q* Each compound tested received a call. Report the one for CN(C)CCCC1(c2ccc(F)cc2)OCc2cc(-c3cc4ccccc4s3)ccc21 (stereo unspecified) .
*A* t

----------
Overview of recorded growth for various molecules
System: MDA-MB-435 melanoma
Assay: NCI-60 one-dose screen, 48 h (100 = growth as untreated, 0 = no growth, -100 = all killed)
Conditions: 10 µM unless noted
The panel holds about 83,000 compounds, 20% with a hit somewhere; the sample as a whole holds those more often.
Output spec: scalar in %, unitless text.

O=C1Nc2ccccc2/C1=C/c1cccn1C(=O)c1ccc(Cl)s1
89.8
COc1ccc2[nH]cc(-c3nc(-c4c[nH]c5c(Cl)nccc45)cs3)c2c1
51.8

*Q* Fill in: growth of Cc1ncc(C(=O)Nc2ccc(CN3CCN(C)CC3)c(C(F)(F)F)c2)cc1C#Cc1cnc(N)c2ncccc12 is ___
*A* -66.5

*Q* Fill in: growth of CN(Cc1ccccc1)c1nc(Cl)c(C2CC(c3ccccc3)=NN2c2ccccc2)s1 (centres undefined) is ___
*A* 98

*Q* Fill in: growth of CS(=O)(=O)c1ccc(NC(=O)c2ccccc2)nc1 is ___
*A* 111

*Q* Fill in: growth of O=C(NCc1cccc(CNC(=O)Nc2nc3ccccc3[nH]2)c1)Nc1nc2ccccc2[nH]1 is ___
*A* -74.9

*Q* Fill in: growth of O=C(O)c1cn(C2CC2)c2cc(N3CCN(C(=O)Nc4nc(-c5ccc(Br)cc5)cs4)CC3)c(F)cc2c1=O is ___
*A* 9.05

*Q* Fill in: growth of O=C(CN1CCCCCC1)Nc1nc2ccc(NCc3ccc(Cl)cc3)cc2s1 is ___
*A* 100

*Q* Fill in: growth of COc1ccc(/C(C)=C(\c2ccc(Cl)cc2)c2ccc(OCCN3CCCCC3)cc2)cc1 is ___
*A* 58

----------
Overview of recorded growth for various compounds
Test system: HOP-62 NSCLC
Test: NCI-60 one-dose screen, 48 h (100 = growth as untreated, 0 = no growth, -100 = all killed)
Settings: 10 µM unless noted
This is part of a sample that, as a whole, favours compounds with a hit. Of some 83,000 tested, about 20% had one in any assay. Calls of active or inactive are those of the source. Rule for the calls: active = growth percent below 10; inactive = the rest.

CCOC(=O)c1[nH]c2c(c1C)-c1[nH]c(=O)c(S(=O)(=O)c3ccccc3)cc1SC2
34.3% [100 µM] (inactive)

*Q* Provide the documented growth with HOP-62 NSCLC as the system for Nc1c(C(=O)Nc2cccc(Cl)c2)sc2nc3c(cc12)CCCC3
*A* 91.8% (inactive)

*Q* Provide the documented growth with HOP-62 NSCLC as the system for C=C1C(=O)O[C@H]2[C@H]1CC/C(COC(=O)/C=C/C(=O)OC/C1=C/CC[C@@]3(C)O[C@H]3[C@H]3OC(=O)C(=C)[C@@H]3CC1)=C\CC[C@@]1(C)O[C@@H]21
*A* 96.6% (inactive)

*Q* Provide the documented growth with HOP-62 NSCLC as the system for O=C1Nc2ccccc2/C1=C/c1cccn1C(=O)c1ccc(Cl)s1
*A* 52.3% (inactive)

----------
Test system: UO-31 renal
Assay: NCI-60 one-dose screen, 48 h (100 = growth as untreated, 0 = no growth, -100 = all killed)
Details: 10 µM unless noted
The panel holds about 83,000 compounds, 20% with a hit somewhere; the sample as a whole holds those more often.
Mark false for growth values under 50%, and true for everything at or above.

CN(C)CCCC1(c2ccc(F)cc2)OCc2cc(-c3ccc4cc[nH]c4c3)ccc21 (centres undefined)
false

*Q* Can CC(=O)c1ccc(Nc2nccc(-c3ccc4ccccc4c3)n2)cc1 be said to have growth at or above 50%?
*A* true

*Q* Can C=C1C(=O)O[C@H]2[C@H]1CC/C(CNC(=O)c1c[nH]c3ccc(F)cc13)=C\CC[C@@]1(C)O[C@@H]21 be said to have growth at or above 50%?
*A* false

*Q* Can COc1cccc(/C=N/NC(=O)c2ccccc2N2CCCC2)c1O be said to have growth at or above 50%?
*A* false

*Q* Can N[C@H]1CCC[C@@H]1NCCCCN1C(=O)c2cccc3cc([N+](=O)[O-])cc(c23)C1=O be said to have growth at or above 50%?
*A* true

*Q* Can COc1ccccc1N(C(C)=O)C1=C(Cl)C(=O)c2ccccc2C1=O be said to have growth at or above 50%?
*A* false

*Q* Can COc1cc(OC)c2sc(-c3ccc(-n4cncc4-c4cc(OC)c(OC)c(OC)c4)cc3)nc2c1 be said to have growth at or above 50%?
*A* false

*Q* Can C#CCNC(=O)[C@]1(C)CCC[C@@]2(C)[C@H]1CC=C1C=C(C(C)C)CC[C@@H]12 be said to have growth at or above 50%?
*A* true

*Q* Can CCN1C2CCC1/C(=C\c1ccc(F)cc1)C(=O)/C2=C/c1ccc(F)cc1 be said to have growth at or above 50%?
*A* true

----------
System: HOP-62 NSCLC
Assay: NCI-60 one-dose screen, 48 h
Conditions: 10 µM unless noted
Compounds without any hit were thinned out: in the full panel of roughly 83,000, 20% have a hit. Active and inactive are the calls of the source. How the source made its calls: active means growth percent below 10; inactive means the rest.
In this exercise, the only acceptable responses are 1 for active, 0 for inactive

These solved cases illustrate the format of a correct answer.
NC1=Nc2cc(OCCCCN3Cc4ccccc4C3)c(OCC3CC3)cc2C12CCCC2
0
O=C(O)COc1ccc(Cl)c(Cl)c1
0
CCN1CCN(c2cc(C)nc(N(CCNc3ccnc4cc(Cl)ccc34)Cc3ccc4c(c3)OCO4)n2)CC1
1
O=C(Cc1ccccc1)Nc1cccc(N=Cc2ccccc2O)c1
0
CN1CCN(c2ccc3nc4c(nc3c2C(F)(F)F)C(=O)c2ncccc2C4=O)CC1
1
CN1CCN(Cc2ccc(NC(=O)c3cncc(C#Cc4cnc(N)c5ccc(F)cc45)c3)cc2C(F)(F)F)CC1
1

*Q* Each compound tested received a call. Report the one for O=C(O)c1ccc(-c2ccc(/C=N/Nc3nc(Nc4ccccc4)nc(N4CCCCC4)n3)o2)cc1 .
*A* 0

*Q* Each compound tested received a call. Report the one for Cc1ccc(/C=C(\C#N)n2nnc3cc(F)c(F)cc32)cc1 .
*A* 0

*Q* Each compound tested received a call. Report the one for COc1ccc(-c2cc(-c3ccccc3)nc(N3CCN(CCNc4ccnc5cc(Cl)ccc45)CC3)n2)cc1 .
*A* 0

*Q* Each compound tested received a call. Report the one for C=CC(=O)Nc1ccc(Oc2nccc(Nc3nnc(-c4ccc(C)cc4)s3)n2)cc1 .
*A* 0

Ref: PubChem BioAssay (NCI)
